This collection of values is drawn from patent US20250101120A1.

# Target entity: T1, hFc-hFasL (fusion protein of human Fc fragment and human FasL extracellular region) (human, UniProt P48023 134-281)
# T1 construct: the order here follows the name hFc-hFasL; also called hFc-FasL; hFc-hFasL antigen; not shown: human Fc fragment tag
# T1 sequence: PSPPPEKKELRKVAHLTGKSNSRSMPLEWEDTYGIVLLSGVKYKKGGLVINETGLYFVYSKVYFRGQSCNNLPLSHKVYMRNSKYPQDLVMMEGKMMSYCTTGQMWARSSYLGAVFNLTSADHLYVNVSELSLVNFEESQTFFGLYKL
# Assay method text: ELISA, hFc-hFasL coated, antibody titrated, anti-human kappa-HRP (protocol of Example 3.2)
Quantity kind: pEC50
Formally, pEC50 is defined as -log10 of the concentration c, with c in mol/L.

Record excerpt, results attached:
1) humFL-M88-5 (antibody, human IgG4, V domains shown, Humanized FL-M88) VH: QVQLVQSGAEVKKPGASVKVSCKGSGYTFTDYTIHWVRQAPGQGLEWMGVISTYQGDASYNQKFKGRVTMTVDKSTSTVYMELSSLRSEDTAVYYCARFPDWDYAMDYWGQGTLVTVSS VL: EIVMTQSPATLSVSPGERATLSCKASQSVDYDGDSYMNWYQQKPGQPPRLLIYAASNLESGIPARFSGSGSGTEFTLTISSLQSEDFAVYYCQHSRELPYTFGQGTKLEIK ... 9.64
2) humFL-M88-4 (antibody, human IgG4, V domains shown, Humanized FL-M88) VH: QVQLVQSGAEVKKPGASVKVSCKGSGYTFTDYTIHWVRQAPGQGLEWMGVISTYQGDASYNQKFKGRVTMTVDKSTSTAYMELSSLRSEDTAVYYCARFPDWDYAMDYWGQGTLVTVSS VL: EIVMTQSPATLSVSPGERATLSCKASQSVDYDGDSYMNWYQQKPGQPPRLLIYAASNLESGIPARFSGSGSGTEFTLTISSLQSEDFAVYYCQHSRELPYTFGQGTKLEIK ... 9.54

API: the following record is the query input.
Problem: Quick check: pEC50 of humFL-M88-15 (antibody, human IgG4, V domains shown, Humanized FL-M88) VH: QVQLVQSGAEVKKPGASVKVSCKGSGYTFTDYTIHWVRQAPGQGLEWMGVISTYQGDASYNQKFKGRATMTVDKSTSTAYMELSSLRSEDTAVYYCARFPDWDYAMDYWGQGTLVTVSS VL: EIVMTQSPATLSVSPGERATLSCKASQSVDYDGDSYMNWYQQKPGQPPRLLIYAASNLESGIPARFSGSGSGTEFTLTISSLQSEDFAVYYCQQSRELPYTFGQGTKLEIK ?
Result: 9.52
